Test: Ticagrelor-ketoconazole interaction study: pharmacokinetic parameters of ticagrelor and AR-C124910XX
Details: human, plasma, oral, 90 mg
Readout: AUC (ng·h/mL)
One number for each entry, in ng·h/mL.

The recorded AUC for entry CCCSc1nc(N[C@@H]2C[C@H]2c2ccc(F)c(F)c2)c2nnn([C@@H]3C[C@H](OCCO)[C@@H](O)[C@H]3O)c2n1 equals 3640

---

Test: Ticagrelor-diltiazem interaction study: pharmacokinetic parameters of ticagrelor and AR-C124910XX
Conditions: human, plasma, oral, 90 mg
Readout: Tmax (h)
Answers are plain numbers, in h.

The molecule listed as CCCSc1nc(N[C@@H]2C[C@H]2c2ccc(F)c(F)c2)c2nnn([C@@H]3C[C@H](OCCO)[C@@H](O)[C@H]3O)c2n1 [Ticagrelor] has a reported Tmax of 2
